For each of the sequences below, state its self-aminoacylation.
System: biotinyl-Trp-oxazolone
Assay: self-aminoacylation, catalytic enhancement (BWO) (fold over background); higher = more active; k-Seq, kA / k0A0; sequences stand for … in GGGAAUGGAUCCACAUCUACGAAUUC…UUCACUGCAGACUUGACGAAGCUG
Variants at the floor of the assay were thinned out.
Could you keep your reply to the number by itself?

Indicate its recorded self-aminoacylation; the sequence in question is CUGCUGCAAACAAUCGGUCUG [Fam1A.1 aminoacylation ribozyme variant] 1.53

Indicate its recorded self-aminoacylation; the sequence in question is CCACCCUUCAAGCAAUCGGUA [Fam1B.1 aminoacylation ribozyme variant] 2.06

Indicate its recorded self-aminoacylation; the sequence in question is CCACACUACAAACAAUCGGUC [Fam1B.1 aminoacylation ribozyme variant] 0.993

Indicate its recorded self-aminoacylation; the sequence in question is ACAAACUUCAAGCAAUCGGUC [Fam1B.1 aminoacylation ribozyme variant] 9.7

Indicate its recorded self-aminoacylation; the sequence in question is CUACUUCAAUGAAUCGGUCUG [Fam1A.1 aminoacylation ribozyme variant] 5.68

Indicate its recorded self-aminoacylation; the sequence in question is CUACUCAAAACAAUCGGUCUG [Fam1A.1 aminoacylation ribozyme variant] 1.23

Indicate its recorded self-aminoacylation; the sequence in question is CUACAUCAAAGAAUCGGUCUG [Fam1A.1 aminoacylation ribozyme variant] 0.67

Indicate its recorded self-aminoacylation; the sequence in question is CUAAUUCAAACAAUCGGUCUG [Fam1A.1 aminoacylation ribozyme variant] 3.52

Indicate its recorded self-aminoacylation; the sequence in question is AAGUUUGCUACUACUCGCAAG [Fam3.1 aminoacylation ribozyme variant] 0.621

Indicate its recorded self-aminoacylation; the sequence in question is AAUUUUGCUAAUAGGCGCAAG [Fam3.1 aminoacylation ribozyme variant] 1.71

Indicate its recorded self-aminoacylation; the sequence in question is CAACACUUCAAGCAAUGGGUC [Fam1B.1 aminoacylation ribozyme variant] 0.833

Indicate its recorded self-aminoacylation; the sequence in question is ACUCACCUAGAUCAUCGGGUG [Fam2.2 aminoacylation ribozyme variant] 5.49

Indicate its recorded self-aminoacylation; the sequence in question is CCAUACUUCAAGCAAUCGGUG [Fam1B.1 aminoacylation ribozyme variant] 6.14

---

For each of the sequences below, state its self-aminoacylation.
Tested on: biotinyl-Val-oxazolone
Assay: self-aminoacylation, catalytic enhancement (BVO) (fold over background); higher = more active; k-Seq, kA / k0A0; sequences stand for … in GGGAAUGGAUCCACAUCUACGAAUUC…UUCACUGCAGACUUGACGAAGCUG
Fewer inactive variants are shown than the library holds.
Could you keep your reply to the number by itself?

Indicate its recorded self-aminoacylation; the sequence in question is AUUCACCACGGUCAUCGGGUG [Fam2.2 aminoacylation ribozyme variant] 6.13

Indicate its recorded self-aminoacylation; the sequence in question is AGUCACGUAGGUCAUCGGGUG [Fam2.2 aminoacylation ribozyme variant] 5.07

Indicate its recorded self-aminoacylation; the sequence in question is AUUAACCUGAUCAUCGAGUGA [Fam2.1 aminoacylation ribozyme variant] 4.67

Indicate its recorded self-aminoacylation; the sequence in question is AUUCAUCUAGGUCAUUGGGUG [Fam2.2 aminoacylation ribozyme variant] 2.77

Indicate its recorded self-aminoacylation; the sequence in question is AUUCACCUAGGUCAGCCGGUG [Fam2.2 aminoacylation ribozyme variant] 5.3

Indicate its recorded self-aminoacylation; the sequence in question is AUGCACCCAGGUCAUCGGGUG [Fam2.2 aminoacylation ribozyme variant] 3.89

---

Test system: biotinyl-Leu-oxazolone
Assay: self-aminoacylation, catalytic enhancement (BLO) (fold over background); higher = more active; k-Seq, kA / k0A0; sequences stand for … in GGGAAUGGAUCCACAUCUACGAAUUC…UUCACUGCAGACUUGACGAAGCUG
This sample holds only a part of the variants without activity.
Decide by self-aminoacylation: equal to or exceeding 1 means satisfied, less means not satisfied.

Decide: self-aminoacylation of CUUACCCUGGUCACCGAGUGA [Fam2.1 aminoacylation ribozyme variant] >= 1? satisfied

Decide: self-aminoacylation of CUACUUCAAACAACCGGUCGG [Fam1A.1 aminoacylation ribozyme variant] >= 1? satisfied

Decide: self-aminoacylation of AUAACCCUGGUCAUCCAGUGA [Fam2.1 aminoacylation ribozyme variant] >= 1? satisfied

Decide: self-aminoacylation of AAGUUUACAAAUAGUCGCAAG [Fam3.1 aminoacylation ribozyme variant] >= 1? satisfied

Decide: self-aminoacylation of AUGUUUGCUAAUAGUGGCAAG [Fam3.1 aminoacylation ribozyme variant] >= 1? not satisfied

Decide: self-aminoacylation of CGACUUCAAACAAUGGGUCUG [Fam1A.1 aminoacylation ribozyme variant] >= 1? not satisfied

Decide: self-aminoacylation of AUUACCCUGGUCACCGUGUGA [Fam2.1 aminoacylation ribozyme variant] >= 1? satisfied

Decide: self-aminoacylation of ACUCACCUAGUUCAUCGGGUG [Fam2.2 aminoacylation ribozyme variant] >= 1? satisfied

Decide: self-aminoacylation of CCACACUUCAAGUAAUCGGUG [Fam1B.1 aminoacylation ribozyme variant] >= 1? satisfied

Decide: self-aminoacylation of AUUACCCUGGUAAUCGAGGGA [Fam2.1 aminoacylation ribozyme variant] >= 1? not satisfied

Decide: self-aminoacylation of CCAUACUUCAAGCAAUCGGGC [Fam1B.1 aminoacylation ribozyme variant] >= 1? satisfied

Decide: self-aminoacylation of AUUACCAUGGUCAUCUAGUGA [Fam2.1 aminoacylation ribozyme variant] >= 1? satisfied

Decide: self-aminoacylation of AUUCACCUAGGACGUCGGGUG [Fam2.2 aminoacylation ribozyme variant] >= 1? satisfied

Decide: self-aminoacylation of AUUCACCGAGGUGAUCGGGUG [Fam2.2 aminoacylation ribozyme variant] >= 1? satisfied

Decide: self-aminoacylation of CUAAUUCAAACAGUCGGUCUG [Fam1A.1 aminoacylation ribozyme variant] >= 1? not satisfied

Decide: self-aminoacylation of AUUCACCUAAGUCAUCGGGCG [Fam2.2 aminoacylation ribozyme variant] >= 1? satisfied

Decide: self-aminoacylation of AAGUUUGCUAGUAGUCGCGAG [Fam3.1 aminoacylation ribozyme variant] >= 1? satisfied

Decide: self-aminoacylation of UCACACUUCAAUCAAUCGGUC [Fam1B.1 aminoacylation ribozyme variant] >= 1? satisfied

Decide: self-aminoacylation of CAACACUUCAAGCAAUUGGUC [Fam1B.1 aminoacylation ribozyme variant] >= 1? not satisfied

Decide: self-aminoacylation of AUUACCCUGGUCAUUGCGUGA [Fam2.1 aminoacylation ribozyme variant] >= 1? satisfied

Decide: self-aminoacylation of AAGUUUGCUUAUAGACGCAAG [Fam3.1 aminoacylation ribozyme variant] >= 1? not satisfied

Decide: self-aminoacylation of AAGUUUGCUAACAGUCUCAAG [Fam3.1 aminoacylation ribozyme variant] >= 1? not satisfied

Decide: self-aminoacylation of AUUCCCCUAGGUCAUCGUGUG [Fam2.2 aminoacylation ribozyme variant] >= 1? satisfied

Decide: self-aminoacylation of AUUCACCCAGGUCAUCGGAUG [Fam2.2 aminoacylation ribozyme variant] >= 1? not satisfied

Decide: self-aminoacylation of AUUACCUUGGUCAUCGAGUGG [Fam2.1 aminoacylation ribozyme variant] >= 1? satisfied

---

System: biotinyl-Met-oxazolone
Experiment: self-aminoacylation, catalytic enhancement (BMO) (fold over background); higher = more active; k-Seq, kA / k0A0; sequences stand for … in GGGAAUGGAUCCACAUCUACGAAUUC…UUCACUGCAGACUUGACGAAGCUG
Variants at the floor of the assay were thinned out.
Decide by self-aminoacylation: equal to or exceeding 2 means 1 (yes), less means 0 (no).

Decide: self-aminoacylation of AUUACCGUGGUCAUCGAGUAA [Fam2.1 aminoacylation ribozyme variant] >= 2? 0 (no)

Decide: self-aminoacylation of AUCCACCUAGGUCAUCUGGUG [Fam2.2 aminoacylation ribozyme variant] >= 2? 1 (yes)

Decide: self-aminoacylation of GUUACCCUGGUGAUCGAGUGA [Fam2.1 aminoacylation ribozyme variant] >= 2? 1 (yes)

Decide: self-aminoacylation of AUUGACCUGGGUCAUCGGGUG [Fam2.2 aminoacylation ribozyme variant] >= 2? 1 (yes)

Decide: self-aminoacylation of GUACACUUCAAGCAAUCGGUC [Fam1B.1 aminoacylation ribozyme variant] >= 2? 0 (no)

Decide: self-aminoacylation of AAUUUUGCUAAUAGUCGUAAG [Fam3.1 aminoacylation ribozyme variant] >= 2? 0 (no)

Decide: self-aminoacylation of AAUACCCUGGUCAUCGGGUGA [Fam2.1 aminoacylation ribozyme variant] >= 2? 1 (yes)

Decide: self-aminoacylation of CGACACUUCAAGCAAUCGUUC [Fam1B.1 aminoacylation ribozyme variant] >= 2? 0 (no)

Decide: self-aminoacylation of CCACACUUAAACCAAUCGGUC [Fam1B.1 aminoacylation ribozyme variant] >= 2? 0 (no)

Decide: self-aminoacylation of CUACUUCAAUCAUUCGGUCUG [Fam1A.1 aminoacylation ribozyme variant] >= 2? 0 (no)

Decide: self-aminoacylation of AUCCACCUAGGUCAUCGGGUU [Fam2.2 aminoacylation ribozyme variant] >= 2? 1 (yes)

Decide: self-aminoacylation of AUUACCCUAGUUAUCGAGUGA [Fam2.1 aminoacylation ribozyme variant] >= 2? 1 (yes)

Decide: self-aminoacylation of AAGUUUGCUAUUAGUCGUAAG [Fam3.1 aminoacylation ribozyme variant] >= 2? 0 (no)

Decide: self-aminoacylation of CUUACCCUGGUCAUCCAGUGA [Fam2.1 aminoacylation ribozyme variant] >= 2? 1 (yes)

Decide: self-aminoacylation of AUGACCCUGGUCAUCGUGUGA [Fam2.1 aminoacylation ribozyme variant] >= 2? 1 (yes)

Decide: self-aminoacylation of CCACGCUUCAAGCAAUAGGUC [Fam1B.1 aminoacylation ribozyme variant] >= 2? 0 (no)

Decide: self-aminoacylation of AUUCACCUAGGUCACCGGGGG [Fam2.2 aminoacylation ribozyme variant] >= 2? 1 (yes)

Decide: self-aminoacylation of AUUCACCUAGGUCCUCUGGUG [Fam2.2 aminoacylation ribozyme variant] >= 2? 1 (yes)

Decide: self-aminoacylation of AAGUCAGCUAAUAGUCGCAAG [Fam3.1 aminoacylation ribozyme variant] >= 2? 0 (no)

Decide: self-aminoacylation of AUUCACCUUGGUUAUCGGGUG [Fam2.2 aminoacylation ribozyme variant] >= 2? 1 (yes)

Decide: self-aminoacylation of CUACUUAAAACAAGCGGUCUG [Fam1A.1 aminoacylation ribozyme variant] >= 2? 0 (no)

Decide: self-aminoacylation of AAGUUUGCUAAUAGUAUCAAG [Fam3.1 aminoacylation ribozyme variant] >= 2? 0 (no)

Decide: self-aminoacylation of AUUCACUUAGGUCAUCGGGAG [Fam2.2 aminoacylation ribozyme variant] >= 2? 0 (no)

Decide: self-aminoacylation of CCAGACUUCAAGCAAACGGUC [Fam1B.1 aminoacylation ribozyme variant] >= 2? 0 (no)

Decide: self-aminoacylation of AUUCACCAAGGUCAACGGGUG [Fam2.2 aminoacylation ribozyme variant] >= 2? 1 (yes)

Decide: self-aminoacylation of AAGUUUGCUAUUAGUCGAAAG [Fam3.1 aminoacylation ribozyme variant] >= 2? 0 (no)

Decide: self-aminoacylation of CUUCUUCAAUCAAUCGGUCUG [Fam1A.1 aminoacylation ribozyme variant] >= 2? 0 (no)

Decide: self-aminoacylation of AAGUUUGGUAAUAGUCGCAAU [Fam3.1 aminoacylation ribozyme variant] >= 2? 0 (no)

Decide: self-aminoacylation of AUUACCCUGGCCAUCGAGCGA [Fam2.1 aminoacylation ribozyme variant] >= 2? 0 (no)

Decide: self-aminoacylation of AAGUUUGAUACUAGUCGCAAG [Fam3.1 aminoacylation ribozyme variant] >= 2? 0 (no)

Decide: self-aminoacylation of AAGUUUGCGAAGAGUCGCAAG [Fam3.1 aminoacylation ribozyme variant] >= 2? 0 (no)

Decide: self-aminoacylation of ACUUCCCUGGUCAUCGAGUGA [Fam2.1 aminoacylation ribozyme variant] >= 2? 1 (yes)
